target: Human recombinant Acetyl-CoA Carboxylase 2 (ACC2) (Homo sapiens); assay: Assay Y: ACC2 inhibition, inorganic phosphate (Malachite Green); type: biochemical; conditions: Assay Y: room temperature, 3 hr, 15 min preincubation
REPORTED_METRIC: log10 of IC50 (log10 of the value in nM)
Friendly reminder: values = log10 of IC50, unit nM.

Example entries begin here.
| COMPOUND | TESTED_TARGET | REPORTED_METRIC | VALUE_MEASURED |
| --- | --- | --- | --- |
| CN1CCN(c2ccc(-c3cc(C(=O)NC[C@H]4CC[C@H](CNC(=O)OCC(F)F)CC4)c4ccccc4n3)cn2)CC1 [Example 117] | Human recombinant Acetyl-CoA Carboxylase 2 (ACC2) (Homo sapiens) | log10 of IC50 | 2.61 |
| CC(C)(C)OC(=O)NC[C@H]1CC[C@H](CNC(=O)c2cc(-c3ccc(N4CCOCC4)nc3)nc3ccccc23)CC1 [Example 145] | Human recombinant Acetyl-CoA Carboxylase 2 (ACC2) (Homo sapiens) | log10 of IC50 | 1.78 |
| CC(C)(C)OC(=O)NC[C@H]1CC[C@H](CNC(=O)c2cc(-c3ccncc3)nc3ccccc23)CC1 [Example 7] | Human recombinant Acetyl-CoA Carboxylase 2 (ACC2) (Homo sapiens) | log10 of IC50 | 2.32 |

Req: Bench note: what log10 of IC50 did CN1CCN(c2ccc(-c3cc(C(=O)NC[C@H]4CC[C@H](CNC(=O)OC5CCOCC5)CC4)c4ccccc4n3)cn2)CC1 [Example 109] show?
Resp: 2.32

Req: Bench note: what log10 of IC50 did CCOc1ccc(-c2cc(C(=O)NC[C@H]3CC[C@H](CNC(=O)OC(C)(C)C)CC3)c3ccccc3n2)cc1 [Example 4] show?
Resp: 2.59

Req: Bench note: what log10 of IC50 did CCOC(=O)NC[C@H]1CC[C@H](CNC(=O)c2cc(-c3cccc(C(N)=O)c3)nc3ccccc23)CC1 [Example 19] show?
Resp: 2.89

Req: Bench note: what log10 of IC50 did CCOC(=O)CN(C[C@H]1CC[C@H](CNC(=O)OC(C)(C)C)CC1)S(=O)(=O)c1ccc2ccccc2c1 [Example 81] show?
Resp: 3.48

Req: Bench note: what log10 of IC50 did CC(C)(C)OC(=O)NC[C@H]1CC[C@H](CNC(=O)c2ccnc(-c3ccc(C(N)=O)cc3)c2)CC1 [Example 50] show?
Resp: 3.83

Req: Bench note: what log10 of IC50 did NS(=O)(=O)c1ccc(-c2cc(C(=O)NC[C@H]3CC[C@H](CNC(=O)O[C@H]4CCOC4)CC3)c3ccccc3n2)cc1 [Example 139] show?
Resp: 2.72

Req: Bench note: what log10 of IC50 did Cc1nc(-c2ccc(S(=O)(=O)N(C)C[C@H]3CC[C@H](CNC(=O)OC(C)(C)C)CC3)s2)cs1 [Example 89] show?
Resp: 3.48

Req: Bench note: what log10 of IC50 did CC(C)(C)OC(=O)NC[C@H]1CC[C@H](CNC(=O)c2cc(Cl)nc3ccccc23)CC1 [Example 35] show?
Resp: 3.58

* * *

molecular target: Human recombinant Acetyl-CoA Carboxylase 2 (ACC2) (Homo sapiens, UniProt O00763); experiment: Assay Y: ACC2 inhibition, inorganic phosphate (Malachite Green); assay type: biochemical; conditions: Assay Y: room temperature, 3 hr, 15 min preincubation
Sequence (O00763 whole entry): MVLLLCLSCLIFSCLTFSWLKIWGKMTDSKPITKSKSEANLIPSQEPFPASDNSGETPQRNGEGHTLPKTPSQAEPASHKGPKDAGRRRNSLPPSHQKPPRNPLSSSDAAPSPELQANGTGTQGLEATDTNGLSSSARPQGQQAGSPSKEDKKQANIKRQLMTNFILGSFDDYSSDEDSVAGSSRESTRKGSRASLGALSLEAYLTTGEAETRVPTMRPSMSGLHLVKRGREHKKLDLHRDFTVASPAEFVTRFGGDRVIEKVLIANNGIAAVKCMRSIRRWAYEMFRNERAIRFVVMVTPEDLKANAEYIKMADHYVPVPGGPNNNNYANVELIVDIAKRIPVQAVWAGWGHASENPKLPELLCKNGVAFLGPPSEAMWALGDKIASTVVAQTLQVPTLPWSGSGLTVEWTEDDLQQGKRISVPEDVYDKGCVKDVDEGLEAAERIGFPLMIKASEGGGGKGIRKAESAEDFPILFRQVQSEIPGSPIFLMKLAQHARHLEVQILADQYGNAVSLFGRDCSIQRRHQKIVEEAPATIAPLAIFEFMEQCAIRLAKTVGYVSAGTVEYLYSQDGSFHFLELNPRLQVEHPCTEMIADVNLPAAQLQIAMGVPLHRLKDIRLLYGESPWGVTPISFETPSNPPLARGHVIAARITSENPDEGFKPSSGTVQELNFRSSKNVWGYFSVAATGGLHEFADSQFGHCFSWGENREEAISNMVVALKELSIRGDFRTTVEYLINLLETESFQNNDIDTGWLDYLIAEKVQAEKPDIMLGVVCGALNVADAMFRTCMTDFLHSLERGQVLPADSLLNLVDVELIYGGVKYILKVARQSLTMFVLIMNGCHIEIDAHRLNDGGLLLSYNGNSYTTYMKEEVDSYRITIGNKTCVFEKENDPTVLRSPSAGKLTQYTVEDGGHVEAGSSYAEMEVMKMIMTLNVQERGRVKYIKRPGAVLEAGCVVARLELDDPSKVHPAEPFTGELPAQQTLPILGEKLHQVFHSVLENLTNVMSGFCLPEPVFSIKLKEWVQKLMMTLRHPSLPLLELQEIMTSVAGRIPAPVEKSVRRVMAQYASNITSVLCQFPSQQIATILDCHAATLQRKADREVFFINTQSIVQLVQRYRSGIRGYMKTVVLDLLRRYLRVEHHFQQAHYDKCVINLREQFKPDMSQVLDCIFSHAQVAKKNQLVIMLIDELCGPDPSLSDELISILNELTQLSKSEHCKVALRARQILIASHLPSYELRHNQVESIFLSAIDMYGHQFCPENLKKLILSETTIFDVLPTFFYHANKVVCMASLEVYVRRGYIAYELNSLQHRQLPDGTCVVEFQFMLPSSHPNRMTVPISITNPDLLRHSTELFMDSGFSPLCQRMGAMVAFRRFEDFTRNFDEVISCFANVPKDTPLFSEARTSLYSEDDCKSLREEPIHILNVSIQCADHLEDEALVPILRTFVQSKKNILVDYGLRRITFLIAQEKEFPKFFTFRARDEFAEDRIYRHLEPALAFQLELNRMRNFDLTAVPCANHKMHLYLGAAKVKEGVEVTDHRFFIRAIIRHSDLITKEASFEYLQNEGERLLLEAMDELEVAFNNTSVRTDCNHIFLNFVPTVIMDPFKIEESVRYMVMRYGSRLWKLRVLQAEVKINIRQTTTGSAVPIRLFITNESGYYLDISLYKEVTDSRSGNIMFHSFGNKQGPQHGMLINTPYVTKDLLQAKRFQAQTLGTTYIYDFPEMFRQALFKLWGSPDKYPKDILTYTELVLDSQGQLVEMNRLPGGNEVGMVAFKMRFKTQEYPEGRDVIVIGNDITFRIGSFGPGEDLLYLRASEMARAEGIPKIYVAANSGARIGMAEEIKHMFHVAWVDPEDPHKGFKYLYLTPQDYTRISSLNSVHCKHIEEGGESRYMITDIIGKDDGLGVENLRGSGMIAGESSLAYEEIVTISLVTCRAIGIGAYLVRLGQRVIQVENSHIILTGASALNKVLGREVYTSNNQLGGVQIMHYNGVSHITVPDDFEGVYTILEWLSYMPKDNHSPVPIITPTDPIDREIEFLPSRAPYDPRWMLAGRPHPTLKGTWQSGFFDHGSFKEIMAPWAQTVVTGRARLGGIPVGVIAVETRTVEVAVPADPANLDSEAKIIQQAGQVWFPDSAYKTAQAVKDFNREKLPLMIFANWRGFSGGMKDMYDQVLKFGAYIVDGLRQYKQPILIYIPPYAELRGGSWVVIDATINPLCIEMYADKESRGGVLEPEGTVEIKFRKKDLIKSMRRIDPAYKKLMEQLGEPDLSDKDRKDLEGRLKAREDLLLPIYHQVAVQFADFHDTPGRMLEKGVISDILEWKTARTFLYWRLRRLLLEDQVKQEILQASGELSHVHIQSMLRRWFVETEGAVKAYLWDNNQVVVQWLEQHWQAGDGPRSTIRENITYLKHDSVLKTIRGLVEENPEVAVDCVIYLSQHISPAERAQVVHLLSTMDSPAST
Form field: pIC50 (one value per entry).
Scale: pIC50 equals -log10([C]), with [C] in mol/L.

| ENTRY_SMILES | pIC50 |
| --- | --- |
| CC(C)(C)OC(=O)NC[C@H]1CC[C@H](CNC(=O)c2cc(-c3ccc(C(=O)O)cc3)nc3ccccc23)CC1 | 6.77 |
| CC(C)(C)OC(=O)NC[C@H]1CC[C@H](CNS(=O)(=O)c2ccc3ncsc3c2)CC1 | 5.50 |
| CC(C)(C)OC(=O)NC[C@H]1CC[C@H](CNC(=O)c2cc(N3CCC(O)CC3)nc3ccccc23)CC1 | 6.25 |

Req: Bench note: what pIC50 did Cc1nc(C)c(-c2cc(C(=O)NC[C@H]3CC[C@H](CNC(=O)OC(C)(C)C)CC3)c3ccccc3n2)s1 show?
Resp: 6.85

Req: Bench note: what pIC50 did CC(C)(C)OC(=O)NC[C@H]1CC[C@H](CNC(=O)c2cc(-c3ccc(N4CCCC4)nc3)nc3ccccc23)CC1 show?
Resp: 6.66

Req: Bench note: what pIC50 did CC(=O)c1ccc(-c2cc(C(=O)NC[C@H]3CC[C@H](CNC(=O)OC(C)(C)C)CC3)c3ccccc3n2)s1 show?
Resp: 6.80

These measurements were taken from patent US20090306133A1.
